Quick reference for MIC among some compounds
System: Micrococcus luteus
Assay: Antibacterial activity against Micrococcus luteus PCI1001 after 18 hrs by serial agar dilution method
Assay type: functional
Conditions: PCI1001, 18 h

# smiles.record, MIC
records = [
    ("NC[C@H]1O[C@@H](O[C@H]([C@H]2O[C@@H](n3ccc(=O)[nH]c3=O)[C@H](O)[C@@H]2O)[C@H](N)C(=O)N[C@@H](CO)C(=O)O)[C@H](O)[C@@H]1O", "> 100 µg/mL"),
    ("NC[C@H]1O[C@@H](O[C@H]([C@H]2O[C@@H](n3ccc(=O)[nH]c3=O)[C@H](O)[C@@H]2O)[C@@H]2NC(=O)[C@@H](COC(=O)c3ccc(-c4ccccc4)cc3)NC2=O)[C@H](O)[C@@H]1O", "> 100 µg/mL"),
    ("NC[C@H]1O[C@@H](O[C@H]([C@H]2O[C@@H](n3ccc(=O)[nH]c3=O)[C@H](O)[C@@H]2O)[C@H](N)C(=O)N[C@H](COC(=O)c2ccc(-c3ccccc3)cc2)C(=O)O)[C@H](O)[C@@H]1O", "> 100 µg/mL"),
]

Measured values drawn from ChEMBL document CHEMBL1144047 for this set.
